Tested on: SK-OV-3 ovarian
protocol notes: NCI-60 one-dose screen, 48 h (100 = growth as untreated, 0 = no growth, -100 = all killed)
condition context: 10 µM unless noted
The panel holds about 83,000 compounds, 20% with a hit somewhere; the sample as a whole holds those more often. Calls of active or inactive are those of the source. Rule for the calls: active = growth percent below 10; inactive = the rest.
experimental endpoint: growth

Some solved cases for reference:
{"molecule": "Cc1ncc(C(=O)Nc2ccc(CN3CCN(C)CC3)c(C(F)(F)F)c2)cc1C#Cc1cnc(N)c2cnccc12", "growth": "-30.9% (active)"}
{"molecule": "N#Cc1c(-c2ccccc2)cc(-c2ccccc2)n(CCCC(=O)NO)c1=O", "growth": "36.1% (inactive)"}
{"molecule": "C=C1C(=O)O[C@H]2[C@H]1CC/C(COC(=O)NCCCCCCCCNC(=O)OC/C1=C/CC[C@@]3(C)O[C@H]3[C@H]3OC(=O)C(=C)[C@@H]3CC1)=C\\CC[C@@]1(C)O[C@@H]21", "growth": "34.4% (inactive)"}
{"molecule": "CC[C@]12C=CCN3CC[C@@]4(c5ccc(OC)cc5N(C)[C@H]4[C@@](O)(C(=O)OC)[C@@H]1OC(=O)CCCN1CCOCC1)[C@@H]32", "growth": "111% (inactive)"}
{"molecule": "COc1ccc(/C=C/C(=O)c2cc3c(N)c(C(=O)Nc4ccc(OC)cc4)sc3nc2C)cc1", "growth": "16.1% (inactive)"}

Recall the recorded growth for COc1cc(-c2nc3ccc(C)cc3[nH]2)ccc1OCC(=O)N=Nc1c(O)[nH]c2ccc(Cl)cc12 with SK-OV-3 ovarian and state it. 32% (inactive)

Another: C=C1C(=O)O[C@H]2[C@H]1CC/C(Cn1cc(-c3cc(C(F)(F)F)cc(C(F)(F)F)c3)nn1)=C\CC[C@@]1(C)O[C@@H]21 -89.5% (active)

Another: O=C1CCC(C(=O)NN(c2ccccc2)c2ccccc2)N1 (configuration not stated) 96.6% (inactive)

Another: CN(CCC#N)c1ccc(/C=C2\NC(=O)NC2=O)cc1 105% (inactive)

====

Test system: NCI-H460 lung
protocol notes: NCI-60 one-dose screen, 48 h
condition context: 10 µM unless noted
The panel holds about 83,000 compounds, 20% with a hit somewhere; the sample as a whole holds those more often. Activity calls are given as the source filed them. Rule for the calls: active = growth percent below 10; inactive = the rest.
# valid calls are active, inactive; nothing else

{"compound": "CC12CCC(/C(=C/NNc3ccc([N+](=O)[O-])cc3[N+](=O)[O-])C1=O)C2(C)C (configuration not stated)", "assigned class": "inactive"}

Test call, this compound: COc1ccc(C/C(C)=C(\c2ccc(O)cc2)c2ccc(OCCN3CCCC3)cc2)cc1 inactive

Another: CCCCCCNc1nc(NCCCCCC)c2[nH]c(NCCCCCC)nc2n1 inactive

Another: CCN1C(=O)N(CC)C2C1NN=c1s/c(=C3\C(=O)N(CCc4ccccc4)c4ccccc43)c(=O)n12 (configuration not stated) active

Another: C=CCn1c(SCC(=O)Nc2ccc(C(=O)/C=C/c3ccc(OC)cc3)cc2)nnc1-c1ccccc1 inactive

Another: CCN1C(=O)N(CC)C2C1NN=c1s/c(=C\c3ccccc3Br)c(=O)n12 (configuration not stated) active

Another: CCc1ccc(CCC(=O)Nc2ncc(Cc3ccc(Cl)cc3)s2)o1 active

Another: COc1cccc(NC(=O)c2cccc(C3CCc4c(cc(OC)c(OC)c4OC)O3)c2)c1 (configuration not stated) inactive

Another: CN1CCN(Cc2cc(NC(=O)c3cccc(C#Cc4cccc5[nH]nc(N)c45)c3)cc(C(F)(F)F)c2)CC1 active

Another: NC(=S)N/N=C/c1cn(-c2ccccc2)nc1-c1cc2ccccc2oc1=O inactive

Another: O=c1[nH]cnc2c1C(c1ccc(Br)cc1)c1sc3c(F)cccc3c1O2 (configuration not stated) inactive

Another: O=C1/C(=C/c2ccc(C(F)(F)F)cc2)COc2ccc(O)cc21 inactive

Another: CCOC(=O)c1c(-c2ccccc2)n2c(=O)cc(C)c3c(O)c(O)cc1c32 inactive

Another: O=C1/C(=C/c2ccc(Br)cc2)COc2ccc(O)c(O)c21 inactive

Another: COc1ccc(-c2cc(C(=O)N3N=C(c4ccc(N)cc4)CC3c3ccccc3)c3ccccc3n2)cc1 (configuration not stated) inactive

Another: N#Cc1c(NC(=O)c2cccs2)[n+]([O-])c2ccc(Cl)cc2[n+]1[O-] inactive

Another: CCCCCCCC/C=C\CCCCCCCCOc1ccccc1CC(=O)NCC[N+]1(C)CCCCC1 inactive

====

Tested on: COLO 205 colon
protocol notes: NCI-60 one-dose screen, 48 h (100 = growth as untreated, 0 = no growth, -100 = all killed)
condition context: 10 µM unless noted
About 83,000 compounds went through this panel and 20% of them were active in at least one assay; those are over-represented in the sample as a whole.
experimental endpoint: growth (%)
Numbers only; they are read as %.

Consider the compound Nc1ncnc2c1c(-c1ccc(Oc3ccccc3)cc1)nn2CC1SSCC1O (stereo not drawn) and give its measured growth. 35.2

====

Test system: RXF 393 renal
protocol notes: NCI-60 one-dose screen, 48 h (100 = growth as untreated, 0 = no growth, -100 = all killed)
condition context: 10 µM unless noted
The panel holds about 83,000 compounds, 20% with a hit somewhere; the sample as a whole holds those more often.
Mark each entry true if its growth sits below 70%, and false for all others.

I wonder whether CCc1cccc(Sc2cc(C(=O)N3Cc4ccc(OCCN(C)C)cc4C3)ccc2O)c1 has growth below 70%. Can you tell? false

Another: O=C(CCCCCCN1CC(=O)N2[C@@H](c3ccc(Cl)cc3)c3[nH]c4ccccc4c3C[C@H]2C1=O)NO false

Another: Cc1ccc(N=Nc2c(N)nn(-c3ccccc3)c2N)cc1 true

Another: COc1ccc(C(c2cc(OC)c(OC)c(OC)c2)N2CCCC2)cc1 (stereo unspecified) false

Another: CCSC1=CC(=O)c2ccccc2C1=O true

Another: CCN1CCN(CC(=O)Nc2nc3ccc(NCc4ccc(Br)cc4)cc3s2)CC1 true

Another: COc1ccc(NC(=O)c2ccc(C(=O)Nc3ccc(OC)cc3OC)cc2)c(OC)c1 true

Another: Clc1ccc(-c2cn3ccsc3n2)c(Cl)c1Cl false

Another: Cc1ccc(S(=O)(=O)n2cc(C3C(Cl)C(=O)N3c3ccc(N4CCOCC4=O)cc3)c3ccccc32)cc1 (stereo unspecified) true

Another: O=C(N/N=C/c1ccc([N+](=O)[O-])cc1)c1ccc2nc(-c3ccc(Cl)cc3)[nH]c2c1 true

Another: CC(C)CSc1oc(-c2ccccc2)nc1S(=O)(=O)c1ccccc1 false

Another: CCN(CC)c1ccc(/C=N/NC(=O)c2ccc(Nc3ccnc(C(F)(F)F)c3)cc2)c(O)c1 true

Another: COc1cc(/C=C2\C(=O)N(c3c(Cl)cccc3Cl)c3ccccc32)cc(OC)c1OCCCCCCn1c2ccccc2c(=O)c2ccccc21 false

Another: CCNc1nc(-c2ccc(F)cc2)c(C#N)c(=O)n1C true

Another: Cc1cccc(-n2c(C)nc3ccc(N4CCCNC4=O)cc3c2=O)c1 false

====

Tested on: SW-620 colon
protocol notes: NCI-60 one-dose screen, 48 h
condition context: 10 µM unless noted
About 83,000 compounds went through this panel and 20% of them were active in at least one assay; those are over-represented in the sample as a whole. Activity calls are given as the source filed them. Rule for the calls: active = growth percent below 10; inactive = the rest.
# valid calls are Yes (active), No (inactive); nothing else

Examples with answers:
{"molecule": "COc1cc(C(=O)/C=C/c2ccc(N3CCN(C)CC3)cc2)cc(OC)c1OC", "assigned class": "No"}
{"molecule": "O=C(/C=C/C12c3ccccc3C(c3ccccc31)C1C(=O)NC(=O)C12)c1ccc(F)cc1 (stereo not drawn)", "assigned class": "Yes"}
{"molecule": "CN1CCN(CCOc2ccc(-c3cnc4c(-c5ccc(C(F)(F)F)cc5)cnn4c3)cc2)CC1", "assigned class": "Yes"}
{"molecule": "COc1cc(C(=O)c2c(N)ncn2-c2ccccc2)cc(OC)c1OC", "assigned class": "No"}
{"molecule": "O=C(CCCCCCN1CC(=O)N2[C@@H](c3ccc(Cl)cc3)c3[nH]c4ccccc4c3C[C@H]2C1=O)NO", "assigned class": "No"}
{"molecule": "COC(=O)Cc1nc(C#N)c(N(C)C)o1", "assigned class": "No"}
{"molecule": "Nc1c(C(=O)Nc2ccccn2)sc2nc3c(cc12)C(O)CCC3 (stereo not drawn)", "assigned class": "No"}
{"molecule": "CC1(C)O[C@H]2OC3CCC(=O)CC3(O)[C@H]2O1 (stereo partly drawn)", "assigned class": "No"}
{"molecule": "CCn1cc(C(=O)N/N=C/c2ccc(Br)cc2)c(=O)c2cc(F)c(N3CCNC(C)C3)c(F)c21 (stereo not drawn)", "assigned class": "Yes"}
{"molecule": "COc1ccc(Cc2cnc(NC(=O)c3sc4ccccc4c3Cl)s2)cc1", "assigned class": "No"}

Test call, this molecule: COc1ccc(C2=C/C(=C\c3ccc(Cl)cc3)C(=O)N2/N=C/c2ccc(Cl)cc2)cc1 No

Another: COc1ccccc1NC(=O)c1ccc(/C=C/C(=O)c2nccn2C)cc1 Yes

Another: CCOC(=O)c1c2c(n3c1NCC3)-c1ccccc1C2=O No

Another: N#Cc1c(-c2ccccc2)cc(-c2ccccc2)n(CCCC(=O)NO)c1=O No

Another: CCc1ccc(CCC(=O)Nc2ncc(Cc3ccc(Cl)cc3)s2)o1 No
